# Test system: larvae of the mustard beetle (Phaedon cochleariae)
# experimental-details: Phaedon larvae test
# Format: in vivo
# assay-setup: 1000 ppm, cabbage leaves dipped
value-type: Kill rate in % after 7d
The reply should consist of the numeric value with the unit placed after it.

# input Identify Kill rate in % after 7d associated with the molecule Cc1cc(-c2ccc(Cl)cc2)cc(C)c1C1=C(O)C(C)(C)C(C)(C)OC1=O [Ex. I-a-1]
# output 100%

# input Tell me Kill rate in % after 7d reported for Cc1ccc(-c2ccc(Cl)cc2)cc1C1=C(OC(=O)OC(C)C)C(C)(C)C(C)(C)OC1=O [Ex. I-A-c-3]
# output 90%

# input Give Kill rate in % after 7d for the following molecule: Cc1cc(-c2ccc(Cl)cc2)cc(C)c1C1=C(O)C(C)(C)COC1=O [Ex. I-a-13]
# output 100%
